Assignment: determine reported pIC50 for the given molecules.
Tested on: KU812
Test: CCK8 antiproliferative assay, KU812
Assay type: cell-based
Details: Homo sapiens, CCK8, 48 h, mean ± SD, n = 3
Value format note: pIC50 is -log10 of concentration (mol/L); just state the number.

Could you share which pIC50 value was measured for "COc1cc(O)ccc1/C=C/C(=O)c1ccc(OCc2nnc(Nc3ccc(OC(F)(F)F)cc3)o2)cc1" ?
4.90

Can you look up the measured pIC50 of "COc1cc(O)ccc1/C=C/C(=O)c1ccc(O)cc1" for me?
4.86

I have this molecule here, COc1cccc2c1C(=O)c1c(O)c3c(c(O)c1C2=O)C[C@@](O)(C(=O)CO)C[C@@H]3O[C@H]1C[C@H](N)[C@H](O)[C@H](C)O1 [Adriamycin, reference compound] , and I need its recorded pIC50.
5.38
